# Test system: FADD−/− Jurkat cells
# assay-overview: Necroptosis inhibition assay, TNF-α-induced necroptosis (CellTiter-Glo 2.0)
# Assay type: cell-based, human
# experimental-parameters: compound 1 μM; TNF-α 15 ng/mL
attribute-measured: Necroptosis inhibition assay (Rescue %) 1 μM
Report as a plain number; the unit % is understood.

Quick one: Necroptosis inhibition assay (Rescue %) 1 μM of Nc1ncc(-c2cnn(C3CCN(C(=O)CC4CCN(c5cccc6c5C(=O)N(C5CCC(=O)NC5=O)C6=O)CC4)CC3)c2)nc1C(=O)O[C@@H](C(=O)Nc1ccc(F)cc1)c1ccccc1 (some centres unmarked) ?
12.75

Quick one: Nc1ncc(-c2cnn(C3CCN(CC4CCN(CC(=O)NCCCNc5cccc6c5C(=O)N(C5CCC(=O)NC5=O)C6=O)CC4)CC3)c2)nc1C(=O)OC(C(=O)Nc1ccc(F)cc1)c1ccccc1 (centres unmarked)
7.64

Quick one: Nc1ncc(-c2cnn(C3CCN(CCCN4CCN(C(=O)CNc5ccc6c(c5)C(=O)N(C5CCC(=O)NC5=O)C6=O)CC4)CC3)c2)nc1C(=O)OC(C(=O)Nc1ccc(F)cc1)c1ccccc1 (centres unmarked)
71.4

Quick one: `Nc1nccnc1C(=O)N[C@@H](C(=O)Nc1ccc(F)cc1)c1ccccc1`
13.76

Quick one: `Cc1ncsc1-c1ccc(CNC(=O)[C@@H]2C[C@@H](O)CN2C(=O)[C@@H](NC(=O)CCC(=O)N2CCC(CN3CCC(n4cc(-c5cnc(N)c(C(=O)O[C@@H](C(=O)Nc6ccc(F)cc6)c6ccccc6)n5)cn4)CC3)CC2)C(C)(C)C)cc1`
24.34

----------
For each record, write down the corresponding Degradation assay (Degradation %) 1 μM.
# subject-of-test: MLKL (Homo sapiens)
# Sequence (Q8NB16 1-471): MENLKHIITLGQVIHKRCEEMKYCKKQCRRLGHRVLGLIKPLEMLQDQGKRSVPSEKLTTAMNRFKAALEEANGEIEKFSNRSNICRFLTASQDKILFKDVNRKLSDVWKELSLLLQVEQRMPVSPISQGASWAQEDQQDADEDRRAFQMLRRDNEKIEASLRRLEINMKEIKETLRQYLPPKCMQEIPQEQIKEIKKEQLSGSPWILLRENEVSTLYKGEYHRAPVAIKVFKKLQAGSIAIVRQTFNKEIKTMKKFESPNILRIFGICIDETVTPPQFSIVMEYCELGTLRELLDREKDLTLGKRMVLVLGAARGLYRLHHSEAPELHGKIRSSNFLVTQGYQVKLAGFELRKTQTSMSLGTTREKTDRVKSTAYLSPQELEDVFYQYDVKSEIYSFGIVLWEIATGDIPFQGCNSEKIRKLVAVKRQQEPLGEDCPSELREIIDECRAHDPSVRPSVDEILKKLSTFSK
# assay-overview: MLKL degradation assay in HepG2 cell line (western blot)
# Type: cell-based
# Set-up: endogenous in cells; host or cells: HepG2 or HaCaT
# experimental-parameters: compound 1 μM; cell line not given
Report as a plain number; the unit % is understood.

Quick one: Degradation assay (Degradation %) 1 μM of Nc1ncc(-c2cnn(C3CCN(CCOCCOCCNC(=O)CNc4ccc5nnn(C6CCC(=O)NC6=O)c(=O)c5c4)CC3)c2)nc1C(=O)O[C@@H](C(=O)Nc1ccc(F)cc1)c1ccccc1 (stereo partly shown) ?
49.38

Quick one: `Nc1ncc(-c2cnn(C3CCN(CC4CCN(CC5CCN(C(=O)c6ccc7c(N8CCC(=O)NC8=O)coc7c6)CC5)CC4)CC3)c2)nc1C(=O)O[C@@H](C(=O)Nc1ccc(F)cc1)c1ccccc1`
78.56

Quick one: `COc1ccc(C(=O)N2CCC(OCCN3CCC(CN4CCC(n5cc(-c6cnc(N)c(C(=O)O[C@@H](C(=O)Nc7ccc(F)cc7)c7ccccc7)n6)cn5)CC4)CC3)CC2)cc1N1CCC(=O)NC1=O`
88.53

Quick one: Nc1ncc(-c2cnn(C3CCN(CCCCCCNC(=O)CNc4cccc5c4C(=O)N(C4CCC(=O)NC4=O)C5=O)CC3)c2)nc1C(=O)O[C@@H](C(=O)Nc1ccc(F)cc1)c1ccccc1 (stereo partly shown)
35.85

Quick one: Nc1ncc(-c2cnn(C3CCN(C(=O)COC4CCN(c5cccc6c5C(=O)N(C5CCC(=O)NC5=O)C6=O)CC4)CC3)c2)nc1C(=O)O[C@@H](C(=O)Nc1ccc(F)cc1)c1ccccc1 (stereo partly shown)
74.40

Quick one: Nc1ncc(-c2cnn(C3CCN(C[C@H]4CC[C@H](CNc5ccc6c(c5)C(=O)N(C5CCC(=O)NC5=O)C6=O)CC4)CC3)c2)nc1C(=O)O[C@@H](C(=O)Nc1ccc(F)cc1)c1ccccc1 (stereo partly shown)
50.93

Quick one: Nc1ncc(-c2cnn(C3CCN(CCCCCCCCCCNC(=O)COc4ccc5nnn(C6CCC(=O)NC6=O)c(=O)c5c4)CC3)c2)nc1C(=O)O[C@@H](C(=O)Nc1ccc(F)cc1)c1ccccc1 (stereo partly shown)
34.07

Quick one: Nc1ncc(-c2cnn(C3CCN(CCCCCCNC(=O)CNc4ccc5c(c4)C(=O)N(C4CCC(=O)NC4=O)C5=O)CC3)c2)nc1C(=O)O[C@@H](C(=O)Nc1ccc(F)cc1)c1ccccc1 (stereo partly shown)
40.32

Quick one: Nc1ncc(-c2cnn(C3CCN(C(=O)CC4CCN(c5ccc6c(c5)C(=O)N(C5CCC(=O)NC5=O)C6=O)CC4)CC3)c2)nc1C(=O)O[C@@H](C(=O)Nc1ccc(F)cc1)c1ccccc1 (stereo partly shown)
64.15

Quick one: Nc1ncc(-c2cnn(C3CCN(CCC4CCN(C(=O)CNc5ccc6nnn(C7CCC(=O)NC7=O)c(=O)c6c5)CC4)CC3)c2)nc1C(=O)O[C@@H](C(=O)Nc1ccc(F)cc1)c1ccccc1 (stereo partly shown)
75.98

----------
# subject-of-test: MLKL (Homo sapiens, UniProt Q8NB16)
# Sequence (Q8NB16 1-471): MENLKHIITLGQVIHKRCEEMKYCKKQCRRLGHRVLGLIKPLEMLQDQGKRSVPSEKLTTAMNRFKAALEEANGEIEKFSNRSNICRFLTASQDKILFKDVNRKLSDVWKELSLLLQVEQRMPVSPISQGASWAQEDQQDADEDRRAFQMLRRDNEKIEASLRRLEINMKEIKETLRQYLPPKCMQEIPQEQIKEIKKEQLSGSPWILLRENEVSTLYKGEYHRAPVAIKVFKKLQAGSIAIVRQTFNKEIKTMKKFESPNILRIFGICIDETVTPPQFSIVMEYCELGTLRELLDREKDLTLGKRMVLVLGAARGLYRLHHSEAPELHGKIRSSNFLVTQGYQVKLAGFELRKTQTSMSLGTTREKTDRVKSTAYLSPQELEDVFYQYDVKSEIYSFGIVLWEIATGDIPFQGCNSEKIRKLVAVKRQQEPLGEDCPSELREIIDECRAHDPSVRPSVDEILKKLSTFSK
# assay-overview: MLKL degradation assay in HepG2 cell line (western blot)
# Format: cell-based
# Design: endogenous in cells; host or cells: HepG2 or HaCaT
# experimental-parameters: compound 10 μM; cell line not given
attribute-measured: Degradation assay (Degradation %) 10 μM
Report as a plain number; the unit % is understood.

Quick one: Degradation assay (Degradation %) 10 μM of Nc1ncc(-c2cnn(C3CCN(CC4CCN(C(=O)CNc5ccc6nnn(C7CCC(=O)NC7=O)c(=O)c6c5)CC4)CC3)c2)nc1C(=O)O[C@@H](C(=O)Nc1ccc(F)cc1)c1ccccc1 (stereo partly drawn) ?
35.05

Quick one: Nc1ncc(-c2cnn(C3CCN(C(=O)CCC4CCN(C(=O)C5CN(c6cccc7c6C(=O)N(C6CCC(=O)NC6=O)C7=O)C5)CC4)CC3)c2)nc1C(=O)O[C@@H](C(=O)Nc1ccc(F)cc1)c1ccccc1 (stereo partly drawn)
59.59

Quick one: Nc1ncc(-c2cnn(C3CN(CC4CCN(C(=O)CNc5ccc6c(c5)C(=O)N(C5CCC(=O)NC5=O)C6=O)CC4)C3)c2)nc1C(=O)OC(C(=O)Nc1ccc(F)cc1)c1ccccc1 (stereo not drawn)
70.16

----------
Target sequence: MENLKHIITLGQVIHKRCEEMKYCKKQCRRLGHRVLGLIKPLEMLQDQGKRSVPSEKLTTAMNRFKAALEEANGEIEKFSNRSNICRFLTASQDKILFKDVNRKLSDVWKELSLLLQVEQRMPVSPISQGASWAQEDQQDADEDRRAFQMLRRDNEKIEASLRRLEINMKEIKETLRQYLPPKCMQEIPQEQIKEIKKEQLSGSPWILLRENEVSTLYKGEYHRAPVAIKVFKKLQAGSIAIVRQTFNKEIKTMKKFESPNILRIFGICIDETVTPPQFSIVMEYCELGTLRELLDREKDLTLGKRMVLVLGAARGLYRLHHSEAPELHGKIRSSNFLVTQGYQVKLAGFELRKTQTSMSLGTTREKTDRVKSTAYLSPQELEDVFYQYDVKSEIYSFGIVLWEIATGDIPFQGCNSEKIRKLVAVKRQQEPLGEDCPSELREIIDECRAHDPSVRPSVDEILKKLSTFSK
For each record, write down the corresponding pKd.
In textbook form, pKd equals minus log to base ten of the concentration in mol/L.

Quick one: pKd of Nc1ncc(C2=CCN(C(=O)CCCCCNc3ccc4c(c3)C(=O)N(C3CCC(=O)NC3=O)C4=O)CC2)cc1C(=O)O[C@@H](C(=O)Nc1ccc(F)cc1)c1ccccc1 (some centres unmarked) [TDH-075] ?
6.85

Quick one: Cl.Nc1ncc(-c2cnn(C3CCNCC3)c2)cc1C(=O)O[C@@H](C(=O)Nc1ccc(F)cc1)c1ccccc1 [TDH-112, hydrochloride]
8.70

Quick one: Nc1ncc(-c2cnn(C3CCN(C(=O)COC4CCN(C(=O)C5CCN(c6cccc7c6C(=O)N(C6CCC(=O)NC6=O)C7=O)CC5)CC4)CC3)c2)nc1C(=O)O[C@@H](C(=O)Nc1ccc(F)cc1)c1ccccc1 (some centres unmarked) [TDH-397]
8.57

Quick one: Nc1ncc(-c2cnn(C3CCN(CCOCCOCCOCCNC(=O)COc4ccc5c(c4)C(=O)N(C4CCC(=O)NC4=O)C5=O)CC3)c2)nc1C(=O)O[C@@H](C(=O)Nc1ccc(F)cc1)c1ccccc1 (some centres unmarked) [TDH-166]
8.47

Quick one: Nc1ncc(-c2cnn([C@@H]3CCN(CCOCCOCCNC(=O)CNc4ccc5c(c4)C(=O)N(C4CCC(=O)NC4=O)C5=O)C3)c2)nc1C(=O)OC(C(=O)Nc1ccc(F)cc1)c1ccccc1 (some centres unmarked) [TDH-268]
8.16
